Cited source for all entries: PubChem BioAssay (NCI)

The entries below are paired with their reported TGI.
- Tested on: NCI-H522 lung
- assay.explanation: NCI tumour cell line growth inhibition, 48 h

[
  {
    "molecule": "CN(C)c1ccc(N=C(C#N)c2nc(N)nc(N3CCOCC3)n2)cc1",
    "target.of.assay": "NCI-H522 lung",
    "TGI": "> 100 µM"
  },
  {
    "molecule": "COC(=O)/C=C1/OC(c2ccccc2)=CC1=O",
    "target.of.assay": "NCI-H522 lung",
    "TGI": "39.3 µM"
  },
  {
    "molecule": "COc1ccc(OC)c(CC(=O)c2ccc(O)c(C(=O)NCCc3ccc(F)cc3)c2)c1",
    "target.of.assay": "NCI-H522 lung",
    "TGI": "11.2 µM"
  },
  {
    "molecule": "Cn1c(=O)c2c(nc3n2C(CCl)CO3)n(C)c1=O (stereo not given)",
    "target.of.assay": "NCI-H522 lung",
    "TGI": "> 100 µM"
  },
  {
    "molecule": "N/C(=N\\N=C=C1C(=O)Nc2ccc(F)cc21)NO",
    "target.of.assay": "NCI-H522 lung",
    "TGI": "> 100 µM"
  },
  {
    "molecule": "CC1(c2nc3ccccc3[nH]2)CCC(CO)C(C)(C)O1 (stereo not given)",
    "target.of.assay": "NCI-H522 lung",
    "TGI": "> 100 µM"
  },
  {
    "molecule": "O=C(NCCS(=O)(=O)N1C(=O)C2CCCN2C(=O)[C@@H]1Cc1ccccc1)OCc1ccccc1 (stereo not given in full)",
    "target.of.assay": "NCI-H522 lung",
    "TGI": "> 100 µM"
  },
  {
    "molecule": "COc1ccc(-c2c(C(=O)Nc3ccccc3)c(-c3ccccc3)n(C3OC(CO)C(O)C(O)C3O)c(=S)c2C#N)cc1 (stereo not given)",
    "target.of.assay": "NCI-H522 lung",
    "TGI": "> 100 µM"
  },
  {
    "molecule": "CN(N=O)C(N)=NC(=O)c1ccccc1",
    "target.of.assay": "NCI-H522 lung",
    "TGI": "> 100 µM"
  },
  {
    "molecule": "COc1ccc(C(c2ccccc2)N2C(=O)CCC2C(=O)O)cc1OC (stereo not given)",
    "target.of.assay": "NCI-H522 lung",
    "TGI": "> 100 µM"
  }
]

----------
- Test system: NCI-H522 lung
- assay.explanation: NCI tumour cell line growth inhibition, 48 h
endpoint.name: TGI (nM)

[
  {
    "compound": "CNC1=C(C)C(=O)C2=C(C1=O)C(COC(N)=O)C1(OC)C3NC3CN21 (stereo not given)",
    "result.modifier": "=",
    "reading": 2220
  },
  {
    "compound": "Nc1ncn([C@@H]2C=C(CO)C(O)C2O)c(=O)n1 (stereo not given in full)",
    "result.modifier": ">",
    "reading": 100000
  },
  {
    "compound": "C[C@@H](Oc1cc(-n2cnc3ccc(OCC4CCN(C)CC4)cc32)sc1C(N)=O)c1ccccc1C(F)(F)F",
    "result.modifier": "=",
    "reading": 236
  },
  {
    "compound": "COc1cc([C@@H]2c3cc4c(cc3[C@@H](N=Cc3ccc(C(=O)O[C@H]5C[C@H]6OC[C@@]6(OC(C)=O)[C@H]6[C@H](OC(=O)c7ccccc7)[C@]7(O)C[C@H](OC(=O)[C@H](OC(=O)c8ccc(C=N[C@@H]9c%10cc%11c(cc%10[C@@H](c%10cc(OC)c(O)c(OC)c%10)[C@H]%10C(=O)OC[C@@H]%109)OCO%11)cc8)[C@@H](NC(=O)c8ccccc8)c8ccccc8)C(C)=C([C@@H](OC(C)=O)C(=O)[C@]56C)C7(C)C)cc3)C3COC(=O)C32)OCO4)cc(C)c1O (stereo not given in full)",
    "result.modifier": ">",
    "reading": 50000
  },
  {
    "compound": "COc1ccc2c(c1)OCC1Cc3cccc(OC)c3OC21 (stereo not given)",
    "result.modifier": ">",
    "reading": 100000
  }
]
